# Tested on: HeLa
# ASSAY_EXPLANATION: Antiproliferative activity against human HeLa cells after 48 hrs by MTT assay
# Assay type: functional, cell-based
Could you mark each record yes (1) if its IC50 falls strictly under 70 µM, and no (0) if it equals or exceeds it?

[
  {
    "SMILES_REPRESENTATION": "COc1ccc2[nH]cc(CCNC(=O)c3cc(Cl)ccc3O)c2c1",
    "TARGET": "HeLa",
    "LABEL": "no (0)"
  }
]

Moving on to the next compound.
Record `O=C(NCCc1c[nH]c2ccccc12)c1cc(Cl)ccc1O` : is its IC50 strictly below 70 µM?
no (0)
